Tested on: EW-13 (Ewing's Sarcoma)
Assay: combination Emax (second highest fraction inhibited in the dose matrix, 72 h); higher = more inhibition; extreme values may be limits of the assay
Value kind: combination Emax
One number for each entry.

Reference set, count: 2
INSERT INTO assay_data (compound, measured_number) VALUES
  ('CN(CCO)CC[C@H](CSc1ccccc1)Nc1ccc(S(=O)(=O)NC(=O)c2ccc(N3CCC([C@@H](O)c4ccccc4-c4ccc(Cl)cc4)CC3)cc2)cc1S(=O)(=O)C(F)(F)F [AZD4320] + C[C@@H]1COCCN1C2=NC(=NC(=C2)C3(CC3)[S@](=N)(=O)C)C4=C5C=CNC5=NC=C4 [AZD6738] (first compound max 1 µM, 7x7, partner max 10 µM)', 0.887),
  ('C[C@@H](c1ccc2nccn2c1)n1nnc2ncc(-c3cnn(C)c3)nc21 [Savolitinib] + CC1(C)CCC(CN2CCN(c3ccc(C(=O)NS(=O)(=O)c4ccc(NCC5CCOCC5)c([N+](=O)[O-])c4)c(Oc4cnc5[nH]ccc5c4)c3)CC2)=C(c2ccc(Cl)cc2)C1 [Venetoclax] (first compound max 1 µM, 7x7, partner max 1 µM)', 0.128);

Moving on to the next compound.
combination Emax lookup needed for Cc1cc2ncnn2cc1Nc1ncc2c(n1)n(C1CCOCC1)c(=O)n2C [AZD7648] + C=CCn1c(=O)c2cnc(Nc3ccc(N4CCN(C)CC4)cc3)nc2n1-c1cccc(C(C)(C)O)n1 [AZD1775] (first compound max 10 µM, partner max 1 µM) , thanks. 0.332

----------
Tested on: OVISE (Ovarian Carcinoma)
Experiment: combination Emax (second highest fraction inhibited in the dose matrix, 72 h); higher = more inhibition; extreme values may be limits of the assay
So I've got a bunch of compounds here, and I need their combination Emax values.
Answers are plain numbers.

In the examples that follow, each entry is paired with its recorded combination Emax.
INSERT INTO measurements (compound, measured_number) VALUES
  ('CCN(CCO)CCCOc1ccc2c(Nc3cc(CC(=O)Nc4cccc(F)c4)[nH]n3)ncnc2c1 [AZD2811] + O=C(c1cc(Cc2n[nH]c(=O)c3ccccc23)ccc1F)N1CCN(C(=O)C2CC2)CC1 [Olaparib] (first compound max 1 µM, 7x7, partner max 10 µM)', 0.272),
  ('COc1cccc(OCCCN)c1-c1cc(Nc2cnc(C#N)cn2)n[nH]1 [Prexasertib] + CCc1c2c(nc3ccc(O)cc13)-c1cc3c(c(=O)n1C2)COC(=O)[C@]3(O)CC [SN-38] (first compound max 1 µM, 7x7, partner max 0.3 µM)', 0.689),
  ('CN(CCO)CC[C@H](CSc1ccccc1)Nc1ccc(S(=O)(=O)NC(=O)c2ccc(N3CCC([C@@H](O)c4ccccc4-c4ccc(Cl)cc4)CC3)cc2)cc1S(=O)(=O)C(F)(F)F [AZD4320] + C1CN(CCC1(C(=O)N[C@@H](CCO)C2=CC=C(C=C2)Cl)N)C3=NC=NC4=C3C=CN4 [Capivasertib] (first compound max 1 µM, 7x7, partner max 3 µM)', 0.89),
  ('Cc1c2c(nn1C)CSCc1cc(n(C)n1)CSc1cc(c3ccccc3c1)OCCCc1c(C(=O)O)n(C)c3c-2c(Cl)ccc13 [AZD5991] + Cn1cnc2c(F)c(Nc3ccc(Br)cc3Cl)c(C(=O)NOCCO)cc21 [Selumetinib] (first compound max 1 µM, 7x7, partner max 3 µM)', 0.291),
  ('CN(CCO)CC[C@H](CSc1ccccc1)Nc1ccc(S(=O)(=O)NC(=O)c2ccc(N3CCC([C@@H](O)c4ccccc4-c4ccc(Cl)cc4)CC3)cc2)cc1S(=O)(=O)C(F)(F)F [AZD4320] + C=CCn1c(=O)c2cnc(Nc3ccc(N4CCN(C)CC4)cc3)nc2n1-c1cccc(C(C)(C)O)n1 [AZD1775] (first compound max 1 µM, partner max 1 µM)', 0.939),
  ('Cc1cc2ncnn2cc1Nc1ncc2c(n1)n(C1CCOCC1)c(=O)n2C [AZD7648] + C[C@@H]1COCCN1C2=NC(=NC(=C2)C3(CC3)[S@](=N)(=O)C)C4=C5C=CNC5=NC=C4 [AZD6738] (first compound max 10 µM, 7x7, partner max 10 µM)', 0.666);

Moving on to the next compound.
Look up combination Emax for this compound: C=CCn1c(=O)c2cnc(Nc3ccc(N4CCN(C)CC4)cc3)nc2n1-c1cccc(C(C)(C)O)n1 [AZD1775] + C1CN(CCC1(C(=O)N[C@@H](CCO)C2=CC=C(C=C2)Cl)N)C3=NC=NC4=C3C=CN4 [Capivasertib] (first compound max 3 µM, partner max 3 µM) 0.651

----------
Tested on: KINGS-1 (Low Grade Glioma)
Experiment: combination Emax (second highest fraction inhibited in the dose matrix, 72 h); higher = more inhibition; extreme values may be limits of the assay
Value kind: combination Emax
Give bare numbers.

Consider the worked cases shown below.
INSERT INTO measurements (compound, test_target, measured_number) VALUES
  ('NC1(C(=O)N[C@@H](CCO)c2ccc(Cl)cc2)CCN(c2ncnc3[nH]ccc23)CC1 [Capivasertib] + COc1nnc2ccc(N3CCC(c4ccc(OCCN5CCN(C)C(=O)[C@H]5C)cc4)CC3)nn12 [AZD5153] (first compound max 10 µM, 7x7, partner max 1 µM)', 'KINGS-1 (Low Grade Glioma)', 0.349),
  ('CC1(C)CCC(CN2CCN(c3ccc(C(=O)NS(=O)(=O)c4ccc(NCC5CCOCC5)c([N+](=O)[O-])c4)c(Oc4cnc5[nH]ccc5c4)c3)CC2)=C(c2ccc(Cl)cc2)C1 [Venetoclax] + Cn1cnc2c(F)c(Nc3ccc(Br)cc3Cl)c(C(=O)NOCCO)cc21 [Selumetinib] (first compound max 1 µM, 7x7, partner max 3 µM)', 'KINGS-1 (Low Grade Glioma)', 0.262);

# input for lookup
So what does the record say about combination Emax for Cc1c2c(nn1C)CSCc1cc(n(C)n1)CSc1cc(c3ccccc3c1)OCCCc1c(C(=O)O)n(C)c3c-2c(Cl)ccc13 [AZD5991] + CN(C)CCCOc1ccc(-c2ccc3ncc4c(c3c2)n(C2CCOCC2)c(=O)n4C)cn1 [AZD0156] (first compound max 1 µM, 7x7, partner max 1 µM) ? 0.278

----------
System: MFE-319 (Endometrial Carcinoma);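 also: after 72 h of two-drug dosing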
Test: Bliss excess, mean over the matrix (fraction); higher = more synergy
Exercise: state measured Bliss excess for each of the compounds provided.
Answers are plain numbers.

INSERT INTO measurements (compound, test_target, measured_number) VALUES
  ('Cn1cnc2c(F)c(Nc3ccc(Br)cc3Cl)c(C(=O)NOCCO)cc21 [Selumetinib] + CCN(CCO)CCCOc1ccc2c(Nc3cc(CC(=O)Nc4cccc(F)c4)[nH]n3)ncnc2c1 [AZD2811] (first compound max 10 µM, 7x7, partner max 1 µM)', 'MFE-319 (Endometrial Carcinoma)', -0.0736),
  ('NC1(C(=O)N[C@@H](CCO)c2ccc(Cl)cc2)CCN(c2ncnc3[nH]ccc23)CC1 [Capivasertib] + CC(=O)c1c(C)c2cnc(Nc3ccc(N4CCNCC4)cn3)nc2n(C2CCCC2)c1=O [Palbociclib] (first compound max 10 µM, 7x7, partner max 10 µM)', 'MFE-319 (Endometrial Carcinoma)', -0.0339);

Now for another entry.
Fill in the blank: the reported Bliss excess of Cc1c2c(nn1C)CSCc1cc(n(C)n1)CSc1cc(c3ccccc3c1)OCCCc1c(C(=O)O)n(C)c3c-2c(Cl)ccc13 [AZD5991] + C[C@@H](Nc1cc(F)cc(F)c1)c1cc(C(=O)N(C)C)cc2c(=O)cc(N3CCOCC3)oc12 [AZD8186] (first compound max 1 µM, 7x7, partner max 3 µM) is ____. 0.0209

----------
Would you kindly list combination Emax for each of these compounds?
System: EW-3 (Ewing's Sarcoma)
Test: combination Emax (second highest fraction inhibited in the dose matrix, 72 h); higher = more inhibition; extreme values may be limits of the assay
One number for each entry.

INSERT INTO measurements (compound, measured_number) VALUES
  ('C=CCn1c(=O)c2cnc(Nc3ccc(N4CCN(C)CC4)cc3)nc2n1-c1cccc(C(C)(C)O)n1 [AZD1775] + Nc1ccn([C@@H]2O[C@H](CO)[C@@H](O)C2(F)F)c(=O)n1 [Gemcitabine] (first compound max 1 µM, partner max 0.3 µM)', 0.904),
  ('COc1nnc2ccc(N3CCC(c4ccc(OCCN5CCN(C)C(=O)[C@H]5C)cc4)CC3)nn12 [AZD5153] + C[C@@H]1COCCN1C2=NC(=NC(=C2)C3(CC3)[S@](=N)(=O)C)C4=C5C=CNC5=NC=C4 [AZD6738] (first compound max 1 µM, 7x7, partner max 10 µM)', 0.851),
  ('COc1cccc(OCCCN)c1-c1cc(Nc2cnc(C#N)cn2)n[nH]1 [Prexasertib] + CCc1c2c(nc3ccc(O)cc13)-c1cc3c(c(=O)n1C2)COC(=O)[C@]3(O)CC [SN-38] (first compound max 1 µM, 7x7, partner max 0.3 µM)', 0.838),
  ('COc1nnc2ccc(N3CCC(c4ccc(OCCN5CCN(C)C(=O)[C@H]5C)cc4)CC3)nn12 [AZD5153] + CCN(CCO)CCCOc1ccc2c(Nc3cc(CC(=O)Nc4cccc(F)c4)[nH]n3)ncnc2c1 [AZD2811] (first compound max 1 µM, 7x7, partner max 1 µM)', 0.626);

Dear reader, for each entry below, please note its combination Emax.
1. N#Cc1cnc(Nc2cc(NC[C@H]3CNCCO3)c(C(F)(F)F)cn2)cn1 [SRA737] + O=c1[nH]cc(F)c(=O)[nH]1 [5-Fluorouracil] (first compound max 10 µM, 7x7, partner max 20 µM)
2. Cc1c2c(nn1C)CSCc1cc(n(C)n1)CSc1cc(c3ccccc3c1)OCCCc1c(C(=O)O)n(C)c3c-2c(Cl)ccc13 [AZD5991] + C[C@@H]1COCCN1C2=NC(=NC(=C2)C3(CC3)[S@](=N)(=O)C)C4=C5C=CNC5=NC=C4 [AZD6738] (first compound max 1 µM, 7x7, partner max 10 µM)

1: 0.663; 2: 0.892
